Test system: HBsAg
Experiment: HBsAg assay: inhibition of HBsAg in HepG2.2.15 cells (chemiluminescence immunoassay of supernatant)
Format: cell-based, hepatitis B virus
Details: read-out: sAg EC50; HepG2.2.15 cells; HBsAg in supernatant at day 6 after exposure to compound; 0.5% DMSO
Procedure: Inhibition of HBsAg was determined in HepG2.2.15 cells. Cells were maintained in culture medium containing 10% fetal calf serum, […], Glutamine, penicillin/streptomycin. Cells were seeded in 96-well collagen-coated plate at a density of 30,000 cells/well. Serially diluted compounds were added to cells next day at the final DMSO concentration of 0.5%. Cells were incubated with compounds for 2-3 days, after which medium was removed. […]
pEC50 by entry:
Field pEC50 (float): negative decimal logarithm of the concentration in molar.

These solved cases illustrate the format of a correct answer.
Reported pEC50 of COc1cc(C2CC2c2cnc(-c3ncccn3)nc2)cc(F)c1F (single isomer, unassigned) [Example 84] : 6.62

Reported pEC50 of CC(=O)Nc1cc(C2CC2c2cnc(-c3ncccn3)nc2)ccc1Cl (single isomer, unassigned) [Example 206] : 6.09

Reported pEC50 of COCCOc1cc(F)c(Cl)cc1C1CC1c1cnc(-c2ncccn2)nc1 (single isomer, unassigned) [Example 157] : 4.31

Reported pEC50 of CCCc1cc(F)c(OC)cc1C1CC1c1cnc(-c2ncccn2)nc1 (single isomer, unassigned) [Example 37] : 5.70

Reported pEC50 of Fc1ccc(C2CC2c2cnc(-c3ncccn3)nc2)cc1Cl (single isomer, unassigned) [Example 30] : 7.10

New cases:
Reported pEC50 of COc1cc(C2CC2c2cnc(-c3ncccn3)nc2)c(Cl)cc1Cl (single isomer, unassigned) [Example 89] : 6.21

Reported pEC50 of Fc1ccc(C2CC2c2cnc(-c3ncccn3)nc2)cc1OCC(F)F (single isomer, unassigned) [Example 27] : 6.20

====

log10 of EC50 by entry:
Test system: HBsAg
Experiment: HBsAg assay: inhibition of HBsAg in HepG2.2.15 cells (chemiluminescence immunoassay of supernatant)
Format: cell-based, hepatitis B virus
Details: read-out: sAg EC50; HepG2.2.15 cells; HBsAg in supernatant at day 6 after exposure to compound; 0.5% DMSO
log10 EC50, nM

Reported log10 of EC50 of COc1cc(C2CC2c2cnc(-c3ncccn3)nc2)cc(OC)c1Cl (single isomer, unassigned) [Example 99] : 3.48

Reported log10 of EC50 of CN1CC[C@@H](Nc2cc(C3CC3c3cnc(-c4ncccn4)nc3)cc(F)c2F)C1 (single isomer, unassigned) [Example 230] : 3.85

Reported log10 of EC50 of COc1cc(C2CC2c2cnc(-c3ncccn3)nc2)cc(F)c1Cl (single isomer, unassigned) [Example 45] : 2.43

====

Test system: HBsAg
Assay: HBsAg assay: inhibition of HBsAg in HepG2.2.15 cells (chemiluminescence immunoassay of supernatant)
Type: cell-based, hepatitis B virus
Conditions: read-out: sAg EC50; HepG2.2.15 cells; HBsAg in supernatant at day 6 after exposure to compound; 0.5% DMSO
MEASURED_PROPERTY: EC50 (nM)
Give the value in nM but do not write nM after it.

Measured EC50 (HBsAg), entry COCCOc1cc(C2CC2c2cnc(-c3ncccn3)nc2)ccc1F (single isomer, unassigned) [Example 21] : 490

Measured EC50 (HBsAg), entry O[C@@H]1CCN(c2cc(C3CC3c3cnc(-c4ncccn4)nc3)cc(F)c2F)C1 (single isomer, unassigned) [Example 105] : 97

Measured EC50 (HBsAg), entry COc1c(Cl)ccc(C2CC2c2cnc(-c3ncccn3)nc2)c1F (single isomer, unassigned) [Example 56] : 470

Measured EC50 (HBsAg), entry CCc1nc(-c2ncccn2)ncc1C1CC1c1ccc(F)c(OC)c1 (single isomer, unassigned) [Example 76] : 2000

Measured EC50 (HBsAg), entry COc1cc(C2CC2c2cnc(-c3ncccn3)nc2)c(F)cc1Cl (single isomer, unassigned) [Example 87] : 140

New cases:
Measured EC50 (HBsAg), entry Cc1cn(-c2cc(C3CC3c3cnc(-c4ncccn4)nc3)cc(F)c2F)cn1 (single isomer, unassigned) [Example 261] : 670

Measured EC50 (HBsAg), entry COc1cc(C2CC2c2cnc(-c3ncccn3)nc2-c2ccc3nc(C)sc3c2)ccc1F (single isomer, unassigned) [Example 140] : 37000
